Target: T1, IGF1R-Fc (extracellular domain of human IGF1R aa 1-932 fused to hinge and constant regions of human IgG1) (human, UniProt P08069 31-932)
T1 construct: range 1-932; made in house by transient transfection, purified on Protein A; also called IGF-IR-Fc; not shown: hinge and constant regions of human IgG1
readout-label: pKd
Recall that pKd is obtained by taking minus log10 of the concentration measured in molar.

For the binder E3-GS10-I1, non-pegylated (designed binder) VSDVPRDLEVVAATPTSLLISWLPGKLRYQYYRITYGETGGNSPVQEFTVPHDLRTATISGLKPGVDYTITVYAVTNMMHVEYSEYPISINYRTEIDKGSGSGSGSGSGSGSGSGSGSVSDVPRDLEVVAATPTSLLISWSARLKVARYYRITYGETGGNSPVQEFTVPKNVYTATISGLKPGVDYTITVYAVTRFRDYQPISINYRTEIDKPSQ , report pKd.
10.00

// provenance: patent US20180037631A1
